- Test system: 282377-053-R-J1-PDC complex spheroid viability
- assay details: Anticancer human tumor 282377-053-R-J1-PDC patient-derived colon adenocarcinoma cell line growth inhibition [POLQ]
- condition details: second compound 10 µM; first compound 0.01 µM; hits give low values
measured property: viability, T/C (%)
# number only, unit % dropped from output

Below, each entry is followed by its recorded viability, T/C result.
>  <compound>
CC[C@@]1(O)C(=O)OCc2c1cc1n(c2=O)Cc2cc3c(CN(C)C)c(O)ccc3nc2-1 + COC1C(OC(N)=O)C(O)C(Oc2ccc3c(O)c(NC(=O)c4ccc(O)c(CC=C(C)C)c4)c(=O)oc3c2C)OC1(C)C

>  <study system>
282377-053-R-J1-PDC complex spheroid viability

>  <viability, T/C, %>
80.7

$$$$
>  <compound>
COc1cccc(OCCCN)c1-c1cc(Nc2cnc(C#N)cn2)n[nH]1 + Nc1ccc(C#CCN(C(=O)Cc2ncc(C(F)(F)F)cc2C(F)(F)F)c2ccc(F)cc2)nn1

>  <study system>
282377-053-R-J1-PDC complex spheroid viability

>  <viability, T/C, %>
96.7

$$$$
>  <compound>
CC[C@@]1(O)C(=O)OCc2c1cc1n(c2=O)Cc2cc3c(CN(C)C)c(O)ccc3nc2-1 + Nc1ccc(C#CCN(C(=O)Cc2ncc(C(F)(F)F)cc2C(F)(F)F)c2ccc(F)cc2)nn1

>  <study system>
282377-053-R-J1-PDC complex spheroid viability

>  <viability, T/C, %>
112

$$$$
>  <compound>
C=CCn1c(=O)c2cnc(Nc3ccc(N4CCN(C)CC4)cc3)nc2n1-c1cccc(C(C)(C)O)n1 + Cc1cccc(N(C)C(=O)C2C(O)CCN2c2nc(C)cc(C(F)(F)F)c2C#N)c1

>  <study system>
282377-053-R-J1-PDC complex spheroid viability

>  <viability, T/C, %>
103

$$$$
>  <compound>
C=CCn1c(=O)c2cnc(Nc3ccc(N4CCN(C)CC4)cc3)nc2n1-c1cccc(C(C)(C)O)n1 + Nc1ccc(C#CCN(C(=O)Cc2ncc(C(F)(F)F)cc2C(F)(F)F)c2ccc(F)cc2)nn1

>  <study system>
282377-053-R-J1-PDC complex spheroid viability

>  <viability, T/C, %>
100

$$$$
>  <compound>
CCc1c2c(nc3ccc(O)cc13)-c1cc3c(c(=O)n1C2)COC(=O)[C@]3(O)CC + COC1C(OC(N)=O)C(O)C(Oc2ccc3c(O)c(NC(=O)c4ccc(O)c(CC=C(C)C)c4)c(=O)oc3c2C)OC1(C)C

>  <study system>
282377-053-R-J1-PDC complex spheroid viability

>  <viability, T/C, %>
72.6

$$$$
>  <compound>
Cn1ncnc1[C@H]1c2n[nH]c(=O)c3cc(F)cc(c23)N[C@@H]1c1ccc(F)cc1 + COC1C(OC(N)=O)C(O)C(Oc2ccc3c(O)c(NC(=O)c4ccc(O)c(CC=C(C)C)c4)c(=O)oc3c2C)OC1(C)C

>  <study system>
282377-053-R-J1-PDC complex spheroid viability

>  <viability, T/C, %>
102

$$$$
>  <compound>
C=CCn1c(=O)c2cnc(Nc3ccc(N4CCN(C)CC4)cc3)nc2n1-c1cccc(C(C)(C)O)n1 + COC1C(OC(N)=O)C(O)C(Oc2ccc3c(O)c(NC(=O)c4ccc(O)c(CC=C(C)C)c4)c(=O)oc3c2C)OC1(C)C

>  <study system>
282377-053-R-J1-PDC complex spheroid viability

>  <viability, T/C, %>
91.8

$$$$
>  <compound>
Cn1ncnc1[C@H]1c2n[nH]c(=O)c3cc(F)cc(c23)N[C@@H]1c1ccc(F)cc1 + Cc1cccc(N(C)C(=O)C2C(O)CCN2c2nc(C)cc(C(F)(F)F)c2C#N)c1

>  <study system>
282377-053-R-J1-PDC complex spheroid viability

>  <viability, T/C, %>
82.7

$$$$

Now examine the next entry.
Ask | Entry under review: CCc1c2c(nc3ccc(O)cc13)-c1cc3c(c(=O)n1C2)COC(=O)[C@]3(O)CC + Cc1cccc(N(C)C(=O)C2C(O)CCN2c2nc(C)cc(C(F)(F)F)c2C#N)c1 . Reported viability, T/C?
Reply | 87.5

* * *

Listing of recorded viability, T/C by entry.
- Test system: 282377-053-R-J1-PDC complex spheroid viability
- assay details: Anticancer human tumor 282377-053-R-J1-PDC cell line growth inhibition [POLQ];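 further: spheroids exposed to compounds for seven days; 100% = DMSO vehicle control viability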
- condition details: second compound 0.316 µM; first compound 0.1 µM; hits give low values
# number only, unit % dropped from output

Below, each entry is followed by its recorded viability, T/C result.
>  <compound>
COc1ccc([C@@H](O)c2cc(-c3ncnc4cc(N5CCOCC5)ccc34)c(F)cc2Cl)nn1 + Cc1cccc(N(C)C(=O)C2C(O)CCN2c2nc(C)cc(C(F)(F)F)c2C#N)c1

>  <measured property>
viability, T/C

>  <reported result>
90

$$$$
>  <compound>
O=C(c1cc(Cc2n[nH]c(=O)c3ccccc23)ccc1F)N1CCN(C(=O)C2CC2)CC1 + COC1C(OC(N)=O)C(O)C(Oc2ccc3c(O)c(NC(=O)c4ccc(O)c(CC=C(C)C)c4)c(=O)oc3c2C)OC1(C)C

>  <measured property>
viability, T/C

>  <reported result>
90.1

$$$$

Ask | Entry under review: CC1COCCN1c1cc(-c2ccnn2C)c2ccnc(-c3ccn[nH]3)c2n1 (stereo not given) + COC1C(OC(N)=O)C(O)C(Oc2ccc3c(O)c(NC(=O)c4ccc(O)c(CC=C(C)C)c4)c(=O)oc3c2C)OC1(C)C . Reported viability, T/C?
Reply | 87.5

Ask | Entry under review: COc1cc2cc(C(=O)CCC(=O)O)sc2cc1OC + Cc1cccc(N(C)C(=O)C2C(O)CCN2c2nc(C)cc(C(F)(F)F)c2C#N)c1 . Reported viability, T/C?
Reply | 107

Ask | Entry under review: CC(C)n1c(=O)n(C)c2cnc3cc(F)c(-c4ccc(OCCCN5CCCCC5)nc4)cc3c21 + Nc1ccc(C#CCN(C(=O)Cc2ncc(C(F)(F)F)cc2C(F)(F)F)c2ccc(F)cc2)nn1 . Reported viability, T/C?
Reply | 91.5

* * *

- System: 282377-053-R-J1-PDC complex spheroid viability
- assay details: Anticancer human tumor 282377-053-R-J1-PDC cell line growth inhibition [POLQ];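 further: spheroids exposed to compounds for seven days; 100% = DMSO vehicle control viability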
- condition details: second compound 3.16 µM; first compound 0.316 µM; hits give low values
Listing of recorded viability, T/C by entry.
# number only, unit % dropped from output

Ask | Entry under review: COc1cccc(OCCCN)c1-c1cc(Nc2cnc(C#N)cn2)n[nH]1 + COC1C(OC(N)=O)C(O)C(Oc2ccc3c(O)c(NC(=O)c4ccc(O)c(CC=C(C)C)c4)c(=O)oc3c2C)OC1(C)C . Reported viability, T/C?
Reply | 46.9

Ask | Entry under review: O=C(Nc1ccc(O)c(NS(=O)(=O)c2ccc(F)cc2)c1)c1ccc(-c2ccccc2)cc1 + COC1C(OC(N)=O)C(O)C(Oc2ccc3c(O)c(NC(=O)c4ccc(O)c(CC=C(C)C)c4)c(=O)oc3c2C)OC1(C)C . Reported viability, T/C?
Reply | 106

Ask | Entry under review: O=C(c1cc(Cc2n[nH]c(=O)c3ccccc23)ccc1F)N1CCN(C(=O)C2CC2)CC1 + COC1C(OC(N)=O)C(O)C(Oc2ccc3c(O)c(NC(=O)c4ccc(O)c(CC=C(C)C)c4)c(=O)oc3c2C)OC1(C)C . Reported viability, T/C?
Reply | 113

* * *

Listing of recorded viability, T/C by entry.
- Tested on: 282377-053-R-J1-PDC complex spheroid viability
- assay details: Anticancer human tumor 282377-053-R-J1-PDC cell line growth inhibition [POLQ];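 further: spheroids exposed to compounds for seven days; 100% = DMSO vehicle control viability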
- condition details: second compound 1 µM; first compound 1 µM; hits give low values
- Protocol: Multicellular complex tumor spheroid response to Polymerase (POL) inhibitors (novobiocin, ART-558, RP6685) in combination with a variety of drugs and investigational agents in selected tumor cell lines The POL inhibitors (novobiocin, ART-558, and RP6685) were evaluated both individually and in combination with standard of care and investigational anticancer small molecules within a complex spheroid model of solid tumors. . […]
# number only, unit % dropped from output

Ask | Entry under review: O=C(Nc1ccc(O)c(NS(=O)(=O)c2ccc(F)cc2)c1)c1ccc(-c2ccccc2)cc1 + Cc1cccc(N(C)C(=O)C2C(O)CCN2c2nc(C)cc(C(F)(F)F)c2C#N)c1 . Reported viability, T/C?
Reply | 109

* * *

- Test system: 282377-053-R-J1-PDC complex spheroid viability
- assay details: Anticancer human tumor 282377-053-R-J1-PDC cell line growth inhibition [POLQ];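 further: spheroids exposed to compounds for seven days; 100% = DMSO vehicle control viability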
- condition details: second compound 0.0316 µM; first compound 0.1 µM; hits give low values
measured property: viability, T/C (%)
# number only, unit % dropped from output

>  <molecule>
COc1cc(C2c3cc4c(cc3C(OC3OC5COC(C)OC5C(O)C3O)C3COC(=O)C23)OCO4)cc(OC)c1O (stereo not drawn) + Nc1ccc(C#CCN(C(=O)Cc2ncc(C(F)(F)F)cc2C(F)(F)F)c2ccc(F)cc2)nn1

>  <viability, T/C [%]>
88.9

$$$$
>  <molecule>
CC1COCCN1c1cc(C2(S(C)(=N)=O)CC2)nc(-c2ccnc3[nH]ccc23)n1 (stereo not drawn) + COC1C(OC(N)=O)C(O)C(Oc2ccc3c(O)c(NC(=O)c4ccc(O)c(CC=C(C)C)c4)c(=O)oc3c2C)OC1(C)C

>  <viability, T/C [%]>
89.1

$$$$

Now examine the next entry.
Ask | Entry under review: CC1COCCN1c1cc(C2(O)CC3CCC(C2)O3)c2cnn(-c3ccn[nH]3)c2n1 (stereo not drawn) + COC1C(OC(N)=O)C(O)C(Oc2ccc3c(O)c(NC(=O)c4ccc(O)c(CC=C(C)C)c4)c(=O)oc3c2C)OC1(C)C . Reported viability, T/C?
Reply | 89.5
